Data provenance is patent US5210193A.

Test system: Serratia marcescens F 0-35
Assay: in vitro antibacterial MIC, agar plate dilution
Format: cell-based
Conditions: Serratia marcescens, F035, 18 h, 35° C., read-out: MIC
Experimental readout: MIC

>  <Compound>
CCn1cc(C(=O)O)c(=O)c2cc(F)c(N3CCN(C)C(c4cc5cc(Cl)ccc5o4)C3)cc21 (stereo not drawn)

>  <System name>
Serratia marcescens F 0-35

>  <Observed value>
> 256 µg/mL

$$$$
>  <Compound>
CCn1cc(C(=O)O)c(=O)c2cc(F)c(N3CCN(C)C(c4sc5ccccc5c4C)C3)cc21 (stereo not drawn)

>  <System name>
Serratia marcescens F 0-35

>  <Observed value>
> 256 µg/mL

$$$$
>  <Compound>
CCCCCCOCC1CN(c2cc3c(cc2F)c(=O)c(C(=O)O)cn3CC)CCN1C (stereo not drawn)

>  <System name>
Serratia marcescens F 0-35

>  <Observed value>
> 256 µg/mL

$$$$

---

Test system: Escherichia coli CMC 84-11
Assay: in vitro antibacterial MIC, agar plate dilution
Type: cell-based
Details: Escherichia coli, CMC8411, 18 h, 35° C., read-out: MIC
Method: The in vitro antimicrobial spectrum of the compounds of ths invention were determined by the agar plate dilution method with Mueller-Hinton agar and an inoculum of each test organism of approximately 10^4 colony forming units delivered by the Steers replicating device. The minimal inhibitory concentration (MIC) in mcg/ml is defined as the lowest concentration of test compound that inhibited visible growth after 18 hours incubation at 35° C. […]

>  <Compound>
CCn1cc(C(=O)O)c(=O)c2cc(F)c(N3CCN(C)C(c4cc5cc(Cl)ccc5o4)C3)cc21 (stereo not drawn)

>  <MIC>
> 256 µg/mL

$$$$
>  <Compound>
CCn1cc(C(=O)O)c(=O)c2cc(F)c(N3CCN(C)C(c4sc5ccccc5c4C)C3)cc21 (stereo not drawn)

>  <MIC>
> 256 µg/mL

$$$$
>  <Compound>
CCn1cc(C(=O)O)c(=O)c2cc(F)c(N3CCNC(c4ccco4)C3)cc21 (stereo not drawn)

>  <MIC>
≤ 0.12 µg/mL

$$$$
